Sourced from the supplement of paper PMC10567573

B1: KLHDC10 (parent)
chain: PSLLELAWEKLLAAFPNLANLSRT

# Variants of: B1
# TEST_SUMMARY: protein stability index of a GFP-peptide fusion (GPS, HEK-293T) (PSI 1-6); higher = more stable;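 further: lentivirally expressed fusions sorted by FACS into six bins by GFP to DsRed ratio, PSI derived from sequencing read proportions per bin multiplied by bin number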
# EXPERIMENTAL_SETUP: c terminus: a fixed tail appended
REPORTED_ENDPOINT: protein stability index

VARIANT_DESCRIPTION	REPORTED_ENDPOINT	RECORDED_MEASUREMENT
A19G	protein stability index	2.17
N17Q	protein stability index	1.94
A19Q	protein stability index	2.37
L11V	protein stability index	2.5
P1T	protein stability index	1.85
R23V	protein stability index	2.33
S22H	protein stability index	2.11
F15L	protein stability index	2.16
L12S	protein stability index	1.9
K10R	protein stability index	1.9
R23T	protein stability index	2.22
L3M	protein stability index	1.65
S22M	protein stability index	2.02
L11H	protein stability index	1.92
L11M	protein stability index	1.6
A14Y	protein stability index	3
N17I	protein stability index	2.01
R23W	protein stability index	2.34
L18I	protein stability index	2.08
L11Q	protein stability index	2.19
L18S	protein stability index	2.01
W8C	protein stability index	1.85
